Test system: Caudate
Assay: Drug uptake in anesthetized cynomolgus monkey brain caudate after 9.5 mins postinjection
Format: ADME, organism-based, Macaca fascicularis, Caudate nucleus
Conditions: in vivo
Each entry gets Not met if its Drug uptake stays under 2, and Met if its Drug uptake is 2 or above.

Recorded results for 4 molecules are shown here.
molecule="O=C(OCC[18F])C1C2CCC(CC1c1cccc(/C=C\\Br)c1)N2 (stereo not given)" label_class=Met
molecule="O=C(OCC[18F])C1C2CCC(CC1c1cccc(/C=C\\I)c1)N2 (stereo not given)" label_class=Met
molecule="O=C(OCCC[18F])C1C2CCC(CC1c1cccc(/C=C\\I)c1)N2 (stereo not given)" label_class=Met
molecule="O=C(OCCC[18F])C1C2CCC(CC1c1cccc(/C=C\\Br)c1)N2 (stereo not given)" label_class=Met

For the next question, use this molecule.
Given O=C(OCC[18F])C1C2CCC(CC1c1ccc(/C=C\I)cc1)N2 (stereo not given) , state whether its Drug uptake is at least 2.
Not met

###

System: Medulla
Test: Drug uptake in anesthetized cynomolgus monkey brain medulla after 6.5 mins postinjection
Assay type: ADME, organism-based, Macaca fascicularis
Conditions: in vivo
The entries below are paired with their reported Drug uptake.

# annotated cases, reported Drug uptake shown
molecule="O=C(OCC[18F])C1C2CCC(CC1c1cccc(/C=C\\I)c1)N2 (stereo not given)" meas_value=2.75
molecule="O=C(OCCC[18F])C1C2CCC(CC1c1cccc(/C=C\\Br)c1)N2 (stereo not given)" meas_value=5.26
molecule="O=C(OCCC[18F])C1C2CCC(CC1c1cccc(/C=C\\I)c1)N2 (stereo not given)" meas_value=3.75
molecule="O=C(OCC[18F])C1C2CCC(CC1c1cccc(/C=C\\Br)c1)N2 (stereo not given)" meas_value=3.64

Now consider the entry below.
So what does the record say about Drug uptake for O=C(OCC[18F])C1C2CCC(CC1c1ccc(/C=C\I)cc1)N2 (stereo not given) ?
2.02

###

Assay: Ratio of drug uptake in midbrain to cerebellum in anesthetized cynomolgus monkey after 235 mins postinjection
Assay type: ADME, organism-based, Macaca fascicularis
Conditions: in vivo
metric: Ratio
Write no unit; give the number alone.

compound="O=C(OCC[18F])C1C2CCC(CC1c1ccc(/C=C\\I)cc1)N2 (centres undefined)" metric=Ratio meas_value=4.4
compound="O=C(OCC[18F])C1C2CCC(CC1c1cccc(/C=C\\Br)c1)N2 (centres undefined)" metric=Ratio meas_value=2.3
compound="O=C(OCCC[18F])C1C2CCC(CC1c1cccc(/C=C\\Br)c1)N2 (centres undefined)" metric=Ratio meas_value=2.3

May I ask what Ratio has been recorded for O=C(OCCC[18F])C1C2CCC(CC1c1cccc(/C=C\I)c1)N2 (centres undefined) ?
1.9

###

Tested on: Putamen
Experiment: Drug uptake in anesthetized cynomolgus monkey brain putamen after 15.5 mins postinjection
Assay type: ADME, organism-based, Macaca fascicularis
Parameters: unit not given here
Conditions: in vivo
metric: Drug uptake
Answer field: number only, no words.

compound="O=C(OCCC[18F])C1C2CCC(CC1c1cccc(/C=C\\Br)c1)N2 (stereo not given)" meas_value=5.53
compound="O=C(OCC[18F])C1C2CCC(CC1c1ccc(/C=C\\I)cc1)N2 (stereo not given)" meas_value=2.71
compound="O=C(OCC[18F])C1C2CCC(CC1c1cccc(/C=C\\Br)c1)N2 (stereo not given)" meas_value=4.05
compound="O=C(OCC[18F])C1C2CCC(CC1c1cccc(/C=C\\I)c1)N2 (stereo not given)" meas_value=3.61

Report Drug uptake for O=C(OCCC[18F])C1C2CCC(CC1c1cccc(/C=C\I)c1)N2 (stereo not given) please.
4.27

###

Test system: Thalamus
Assay: Drug uptake in anesthetized cynomolgus monkey brain thalamus after 27.5 mins postinjection
Assay type: ADME, organism-based, Macaca fascicularis
Parameters: unit not given here
Details: in vivo
Reported Drug uptake values follow for various compounds
Would you mind answering with just the numeric figure?

compound="O=C(OCC[18F])C1C2CCC(CC1c1ccc(/C=C\\I)cc1)N2 (stereo not given)" metric="Drug uptake" meas_value=3.06
compound="O=C(OCCC[18F])C1C2CCC(CC1c1cccc(/C=C\\Br)c1)N2 (stereo not given)" metric="Drug uptake" meas_value=5.08
compound="O=C(OCCC[18F])C1C2CCC(CC1c1cccc(/C=C\\I)c1)N2 (stereo not given)" metric="Drug uptake" meas_value=4.66
compound="O=C(OCC[18F])C1C2CCC(CC1c1cccc(/C=C\\Br)c1)N2 (stereo not given)" metric="Drug uptake" meas_value=3.94

Attention now shifts to the item below.
// lookup Drug uptake for O=C(OCC[18F])C1C2CCC(CC1c1cccc(/C=C\I)c1)N2 (stereo not given)
4.02

###

Tested on: Pons
Assay: Drug uptake in anesthetized cynomolgus monkey brain pons after 85 mins postinjection
Type: ADME, organism-based, Macaca fascicularis
Conditions: in vivo
Please assign n whenever Drug uptake is at or above 4, and y whenever it is below.

Please review the entries below; each comes with its answer.
compound="O=C(OCCC[18F])C1C2CCC(CC1c1cccc(/C=C\\Br)c1)N2 (stereo not given)" label_class=n
compound="O=C(OCC[18F])C1C2CCC(CC1c1cccc(/C=C\\I)c1)N2 (stereo not given)" label_class=y
compound="O=C(OCC[18F])C1C2CCC(CC1c1ccc(/C=C\\I)cc1)N2 (stereo not given)" label_class=y
compound="O=C(OCCC[18F])C1C2CCC(CC1c1cccc(/C=C\\I)c1)N2 (stereo not given)" label_class=n

Shift focus to the following entry.
Does the reported Drug uptake of O=C(OCC[18F])C1C2CCC(CC1c1cccc(/C=C\Br)c1)N2 (stereo not given) stay below 4?
n

###

Reported Drug uptake values for a set of compounds
Test system: Thalamus
Experiment: Drug uptake in anesthetized cynomolgus monkey brain thalamus after 235 mins postinjection
Type: ADME, organism-based, Macaca fascicularis
Parameters: unit not given here
Settings: in vivo
Give only the figure.

compound="O=C(OCCC[18F])C1C2CCC(CC1c1cccc(/C=C\\I)c1)N2 (stereo not given)" meas_value=2.78
compound="O=C(OCCC[18F])C1C2CCC(CC1c1cccc(/C=C\\Br)c1)N2 (stereo not given)" meas_value=3.48
compound="O=C(OCC[18F])C1C2CCC(CC1c1cccc(/C=C\\Br)c1)N2 (stereo not given)" meas_value=2.88

Data request, read-out Drug uptake, for O=C(OCC[18F])C1C2CCC(CC1c1ccc(/C=C\I)cc1)N2 (stereo not given)
3.34

// same read-out, input: O=C(OCC[18F])C1C2CCC(CC1c1cccc(/C=C\I)c1)N2 (stereo not given)
2.2

###

System: Thalamus
Assay: Drug uptake in anesthetized cynomolgus monkey brain thalamus after 45 mins postinjection
Assay type: ADME, organism-based, Macaca fascicularis
Design: unit not given here
Conditions: in vivo, 0.75 h
API: label(entry) gives Criterion met if the entry's Drug uptake is strictly smaller than 4; on equality or larger values it gives Criterion not met.

compound="O=C(OCC[18F])C1C2CCC(CC1c1cccc(/C=C\\Br)c1)N2 (stereo not given)" tested_on=Thalamus label_class="Criterion not met"

Bench note: check whether O=C(OCCC[18F])C1C2CCC(CC1c1cccc(/C=C\I)c1)N2 (stereo not given) shows Drug uptake below 4
Criterion not met

What do you have for O=C(OCC[18F])C1C2CCC(CC1c1ccc(/C=C\I)cc1)N2 (stereo not given) ?
Criterion met

Entry to check: O=C(OCCC[18F])C1C2CCC(CC1c1cccc(/C=C\Br)c1)N2 (stereo not given)
Criterion not met

What do we get for O=C(OCC[18F])C1C2CCC(CC1c1cccc(/C=C\I)c1)N2 (stereo not given) ?
Criterion not met

###

System: Caudate
Assay: Drug uptake in anesthetized cynomolgus monkey brain caudate after 12.5 mins postinjection
Format: ADME, organism-based, Macaca fascicularis, Caudate nucleus
Details: in vivo
metric: Drug uptake
Form field (numeric): enter value without unit.

Consider the following illustrative entries.
molecule="O=C(OCCC[18F])C1C2CCC(CC1c1cccc(/C=C\\I)c1)N2 (centres undefined)" meas_value=3
molecule="O=C(OCCC[18F])C1C2CCC(CC1c1cccc(/C=C\\Br)c1)N2 (centres undefined)" meas_value=4.23
molecule="O=C(OCC[18F])C1C2CCC(CC1c1cccc(/C=C\\I)c1)N2 (centres undefined)" meas_value=2.74

Param item = O=C(OCC[18F])C1C2CCC(CC1c1cccc(/C=C\Br)c1)N2 (centres undefined) ; retrieve measured Drug uptake.
2.61

###

Test: Ratio of drug uptake in pons to cerebellum in anesthetized cynomolgus monkey after 18.5 mins postinjection
Format: ADME, organism-based, Macaca fascicularis
Settings: in vivo
Measured Ratio accompanies every entry in the list below.
Lab note: jot down the number only; don't add units.

Please review the entries below; each comes with its answer.
compound="O=C(OCC[18F])C1C2CCC(CC1c1ccc(/C=C\\I)cc1)N2 (stereo not given)" metric=Ratio meas_value=0.9
compound="O=C(OCCC[18F])C1C2CCC(CC1c1cccc(/C=C\\Br)c1)N2 (stereo not given)" metric=Ratio meas_value=0.7
compound="O=C(OCCC[18F])C1C2CCC(CC1c1cccc(/C=C\\I)c1)N2 (stereo not given)" metric=Ratio meas_value=0.9
compound="O=C(OCC[18F])C1C2CCC(CC1c1cccc(/C=C\\I)c1)N2 (stereo not given)" metric=Ratio meas_value=0.7

// Ratio lookup, key: O=C(OCC[18F])C1C2CCC(CC1c1cccc(/C=C\Br)c1)N2 (stereo not given)
1.1
